Target: MRGPRX2 (Homo sapiens)
Sequence (Q96LB1 whole entry): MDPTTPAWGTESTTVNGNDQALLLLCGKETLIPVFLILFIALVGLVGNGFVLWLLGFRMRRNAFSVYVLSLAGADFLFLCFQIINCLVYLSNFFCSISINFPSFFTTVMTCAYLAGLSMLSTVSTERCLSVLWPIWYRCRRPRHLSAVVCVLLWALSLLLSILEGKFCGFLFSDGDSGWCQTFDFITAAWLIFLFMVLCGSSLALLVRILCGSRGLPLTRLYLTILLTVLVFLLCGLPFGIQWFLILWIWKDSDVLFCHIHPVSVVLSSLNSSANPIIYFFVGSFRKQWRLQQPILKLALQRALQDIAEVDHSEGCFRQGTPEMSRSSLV
Assay: MRGPRX2 IP1 HTRF assay
Assay type: cell-based
Set-up: host or cells: CHO-K1
Details: CHO-K1 cells stably expressing human MRGPRX2; IP1 accumulation; agonist Cortistatin 14 1 μM
pIC50: −log10 of the molar value.
Quantity measured: pIC50

Input: What measured pIC50 goes with Cc1ncc2c(N[C@@H]3CCC[C@H](Nc4cc(C(F)(F)F)nc5ccc(Cl)cc45)C3)nccn12 ?
Output: 7.00 to 10.00

Input: What do you have for Cc1ccc2nc(C(F)(F)F)cc(N[C@H]3CCC[C@@H](Nc4nccc5ncn(C)c45)C3)c2c1 ?
Output: 7.00 to 10.00

Input: What do you have for Cn1cnc2ccnc(N[C@@H]3CCC[C@H](Nc4cc(C(F)(F)F)nc5ccccc45)C3)c21 ?
Output: 6.00 to 7.00

Input: What do you have for Cn1cnc2ncnc(N[C@@H]3CCC[C@H](Nc4cc(C(F)(F)F)nc5ccc(Cl)cc45)C3)c21 ?
Output: 7.00 to 10.00

Input: What do you have for Fc1ccc2nc(C(F)(F)F)cc(N[C@H]3CCC[C@@H](Nc4nnc5ccccn45)C3)c2c1 ?
Output: 7.00 to 10.00

Input: What do you have for Cn1cnc2ccnc(N[C@H]3CC[C@@H](Nc4cc(C(F)(F)F)nc5ccc(F)cc45)CC3)c21 ?
Output: 7.00 to 10.00
